# credit: paper PMC5540273

- Tested on: PAK6
- MEASUREMENT_CONTEXT: concentration: 1 μM, replicates: in singlicate; n = 1;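 further: KINOMEscan kinase panel screen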
# %Inh listing for each entry below

Worked examples, 8 molecules total:
| MOLECULE | SYSTEM_TESTED | %Inh |
| --- | --- | --- |
| CC(=O)Nc1ccc(COc2ccc(Nc3ccnc4cc(-c5ccccn5)ccc34)cc2)cc1.Cl | PAK6 | 13% |
| COc1cc2ncn(-c3cc(OCc4sccc4Cl)c(C(N)=O)s3)c2cc1OC | PAK6 | 6% |
| Cc1nnc(-c2ccc3ncc(-c4ccc(S(C)=O)cc4)n3c2)o1 (stereo not drawn) | PAK6 | 0% |
| COc1ccc(Nc2nccc(N3CCC(NC(=O)Nc4cccc(C(C)=O)c4)C3)n2)cc1 (stereo not drawn) | PAK6 | 13% |
| Cl.Oc1cccc(Nc2ccnc3cc(-c4ccncc4)ccc23)c1 | PAK6 | 0% |
| O=c1cc(N2CCOCC2)nc2n(Cc3cccc(Cl)c3Cl)c(C3CC3)nn12 | PAK6 | 13% |
| CN1c2ccc(CNc3ccc(F)cc3)cc2-c2c(cnn2C)S1(=O)=O | PAK6 | 0% |
| CC(C)(C)n1cnc2c(N)ncnc21 | PAK6 | 0% |

Here's the next entry for you.
Exercise: Requested field: %Inh. Item: O=C(NCCCN1CCOCC1)c1cccc(Nc2nccc(Nc3ccc(Oc4ccccc4)cc3)n2)c1
Solution: 7%

----------
- Tested on: TSSK3
- MEASUREMENT_CONTEXT: concentration: 1 μM, replicates: in singlicate; n = 1
# %Inh listing for each entry below
# output: bare number, implied unit %

Worked examples, 6 compounds total:
| COMPOUND | SYSTEM_TESTED | VALUE_UNIT | %Inh |
| --- | --- | --- | --- |
| NS(=O)(=O)c1cccc(-c2ccc3ncc(N4CCOCC4)nc3c2)c1 [GSK1535721] | TSSK3 | % | 6 |
| COc1ccc(S(=O)(=O)NC2CCN(c3cc(C)nc(Nc4cccc(C#N)c4)n3)CC2)cc1.O=C(O)C(F)(F)F [GSK1653539] | TSSK3 | % | 0 |
| Cc1nnc(-c2ccc(C)c(-c3ccc(C(=O)Nc4ccc(NS(C)(=O)=O)cc4)cc3)c2)o1 [GW702865] | TSSK3 | % | 3 |
| Cc1ccc(NC(=O)c2ccnc(N3CCN(C)CC3)c2)cc1-c1ccc(C(=O)NCC2CC2)cc1 [GW775604] | TSSK3 | % | 0 |
| CC(C)Oc1ccc2c(-c3ccnc(Nc4ccc(N5CCN(C)CC5)cc4)n3)cnn2n1 [GW696155] | TSSK3 | % | 96 |
| Nc1nccc(-c2c(-c3ccc(F)cc3)ncn2C2CCN(CC(F)(F)F)CC2)n1 [SB-236560] | TSSK3 | % | 67 |

Exercise: Form field - read-out: %Inh; system: TSSK3; submitted item: Cc1cn2c(=O)cc(N3CCOCC3)nc2n1Cc1cccc(Cl)c1Cl [GSK2334006]
Solution: 29

Exercise: Form field - read-out: %Inh; system: TSSK3; submitted item: CN1c2ccc(NCc3ccc(F)cc3)cc2-c2c(cnn2C)S1(=O)=O
Solution: 0

----------
- Test system: SGK
- MEASUREMENT_CONTEXT: concentration: 1 μM, replicates: in singlicate; n = 1
# %Inh listing for each entry below
# output: bare number, implied unit %

| RECORD_SMILES | SYSTEM_TESTED | %Inh [%] |
| --- | --- | --- |
| COc1cc2c(cc1OC[C@@H](O)CO)ncc1c3ccc(C#N)cc3[nH]c21 | SGK | 47 |

Exercise: Requested field: %Inh. Item: Nc1nc(-c2ccc3c(N)n[nH]c3c2)cc(N2CCCC2)n1
Solution: 0

Exercise: Requested field: %Inh. Item: Cc1ccc(NC(=O)c2ccnc(N3CCN(C)CC3)c2)cc1-c1ccc(C(=O)NCC2CC2)cc1
Solution: 0

Exercise: Requested field: %Inh. Item: [2H]C([2H])(c1cccc(C(F)(F)F)c1C)n1ccn2c(=O)nc(N3CCOCC3)cc12
Solution: 0

Exercise: Requested field: %Inh. Item: O=c1cc(N2CCOCC2)nc2n(Cc3cccc(F)c3)ccn12
Solution: 0

Exercise: Requested field: %Inh. Item: O=C(Nc1cccc(-c2nn3ncccc3c2-c2ccnc(Nc3cccc(C(F)(F)F)c3)n2)c1)c1c(F)cccc1F
Solution: 1

Exercise: Requested field: %Inh. Item: NS(=O)(=O)CCc1cccc(Nc2nccc(-c3c(-c4cccc(NC(=O)c5c(F)cccc5F)c4)nn4ccccc34)n2)c1
Solution: 0

Exercise: Requested field: %Inh. Item: Cc1c2ccc(N(C)c3ccnc(Nc4cccc(S(N)(=O)=O)c4)n3)cc2nn1Cc1ccccc1.Cl.Cl
Solution: 0
